Data origin: paper PMC10584170

# Test system: P. falciparum male gametocytes
# testDetails: P. falciparum Dual Gamete Formation Assay (PfDGFA), male readout (exflagellation)
# Assay type: cell-based, Plasmodium falciparum NF54
# testSettings: Plasmodium falciparum; 2µM, 24h preincubation with gametocytes; replicate R3; read-out: % inhibition male (individual replicates) R3
measuredAttribute: inhibition at 2 µM (%)

- CN1CCN(c2ccc(Nc3ncc(Cl)c(Nc4cccnc4C(N)=O)n3)cc2)CC1.Cl [TCMDC-134164]: 90.2
- Cl.NC(=O)c1ccccc1Nc1nc(Nc2cccc(N3CCN(CCO)CC3)c2)ncc1Cl [TCMDC-134114]: 96.2
- C#C[C@H]1O[C@@H](n2cnc3c(Nc4cc(Br)cc(C(F)(F)F)c4)ncnc32)[C@H](O)[C@@H]1O [TCMDC-135185]: 98
- FC(F)(F)c1cccc(NC(=S)NN=Cc2ccccn2)c1 [TCMDC-123509]: 102
- O=c1c(Br)ccccc1Br [TCMDC-142246]: 94.6
- COCCCNC(=S)NN=C(C)c1ccccn1 [TCMDC-137907]: 97.8
- COc1ccc(Nc2ncc(C#N)c(Nc3ccccc3C(N)=O)n2)cc1N1CCN(C)CC1.Cl [TCMDC-134117]: 93.5
- O=C(O)C(F)(F)F.O=c1[nH]ccc2nc(N[C@@H]3CCCNC3)nc(Nc3ccc(S(=O)(=O)N4CCOCC4)cc3)c12 [TCMDC-135038]: 99.2
- CS(=O)(=O)Cc1ccc(Nc2ncc(Cl)c(Nc3cccnc3C(N)=O)n2)cc1.Cl [TCMDC-134165]: 93.3
- Br.c1cc(Nc2nc(-c3ccc(-c4csc(Nc5ccncc5)n4)cc3)cs2)ccn1 [TCMDC-139725]: 91.3
- CC(C)(C)c1ccc(-c2nc3c(ccc4nc(N)nc(N)c43)[nH]2)cc1.Cl [TCMDC-137984]: 98
- N=C(N)NCCN(Cc1ccccc1)c1ccc(Cl)cc1 [TCMDC-131838]: 97.4
- Cl.NCC1(c2nc(-c3ccc(Cl)c(O)c3)c(-c3ccncc3)[nH]2)CCCCC1 [TCMDC-141154]: 95.7
- Br.c1cc(C2=NC3CCCCC3N2)ccc1OCCCOc1ccc(C2=NC3CCCCC3N2)cc1 (centres unmarked) [TCMDC-137803]: 92.1
